- Test system: MDA-MB-231 (human mammary gland adenocarcinoma)
- protocol_notes: MTS antiproliferative assay
- measurement_conditions: read-out: Cytotoxic activity IC50 MDA-MB-231; MTS, 72 h of incubation
reported_endpoint: IC50 (µM)
Numeric answer only, unit µM assumed.

Give its IC50 value. Item: N.N.[Cl][Pt][Cl] [cisPt, cisplatin]
7.1

* * *

- Test system: HeLa (human cervical adenocarcinoma)
- protocol_notes: MTS antiproliferative assay
reported_endpoint: pIC50
Quick note: pIC50 means taking -log10 of the concentration in moles per liter.

Request - read-out pIC50 | tested on HeLa (human cervical adenocarcinoma) | molecule O.O.O.O.O.O.O=C([O-])c1cc(O)cc(C(=O)[O-])n1.O=C([O-])c1cc(O)cc(C(=O)[O-])n1.[Ga+3].[Ga+3].[OH-].[OH-] [GaChel, [Ga(Chel)(H2O)(OH)]2·4H2O]
2.85

Would you kindly repeat that for O.O=C([O-])c1ccccn1.O=C([O-])c1ccccn1.O=C([O-])c1ccccn1.[Ga+3] [GaPic, [Ga(Pic)3]·H2O] ?
2.81

Query O.O=C([O-])c1cccc(C(=O)[O-])n1.O=C([O-])c1cccc(C(=O)[O-])n1.[Ga+3].[OH3+] [GaDpic, H3O[Ga(Dpic)2]·H2O] next
2.94

Same thing, different molecule: O.O.O=C([O-])c1cc(Cl)cc(C(=O)[O-])n1.O=C([O-])c1cc(Cl)cc(C(=O)[O-])n1.[Ga+3].[Ga+3].[OH-].[OH-] [GaCldpic, [Ga(Cldpic)(H2O)(OH)]2]
3.35

* * *

- Test system: Staphylococcus aureus (S. aureus) CCM 3953
- protocol_notes: Antimicrobial activity, macrodilution method (growth by A590)
- Type: cell-based
- measurement_conditions: Staphylococcus aureus, CCM3953; Bacteria; MHB, 37 °C; DMSO max 1.0 vol. %; read-out: IC50 S. aureus
- From the text: […]
pIC50: −log10 of the molar value.
reported_endpoint: pIC50

Can you look up the measured pIC50 of O=C(O)c1cc(O)cc(C(=O)O)n1 for me?
< 3.30

Please give the result for O=C(O)c1ccccn1 too.
< 3.30

// query: O=C(O)c1cc(Cl)cc(C(=O)O)n1
< 3.30

* * *

- System: PaTu 8902 (human pancreatic adenocarcinoma)
- protocol_notes: MTS antiproliferative assay
reported_endpoint: pIC50
// scale note: pIC50 = -log10(conc_M); give the bare number

Item: O.O=C([O-])c1cccc(C(=O)[O-])n1.O=C([O-])c1cccc(C(=O)[O-])n1.[Ga+3].[OH3+] [GaDpic, H3O[Ga(Dpic)2]·H2O] Test system: PaTu 8902 (human pancreatic adenocarcinoma) Read-out: pIC50 Value: ?
3.29

Subsequent entry: O.O.O=C([O-])c1cc(Cl)cc(C(=O)[O-])n1.O=C([O-])c1cc(Cl)cc(C(=O)[O-])n1.[Ga+3].[Ga+3].[OH-].[OH-] [GaCldpic, [Ga(Cldpic)(H2O)(OH)]2]
3.36

Further, for O.O.O.O.O.O.O=C([O-])c1cc(O)cc(C(=O)[O-])n1.O=C([O-])c1cc(O)cc(C(=O)[O-])n1.[Ga+3].[Ga+3].[OH-].[OH-] [GaChel, [Ga(Chel)(H2O)(OH)]2·4H2O] ?
3.21

Next compound up: O.O=C([O-])c1ccccn1.O=C([O-])c1ccccn1.O=C([O-])c1ccccn1.[Ga+3] [GaPic, [Ga(Pic)3]·H2O]
3.57

* * *

Hi there, I'd appreciate the recorded IC50 for every entry that follows.
- Test system: Alternaria alternata (A. alternata) CCM F-128
- protocol_notes: Growth of filamentous fungi, macrodilution method on solidified PDA (colony diameter)
- Type: cell-based
- measurement_conditions: Filamentous fungi; solidified potato-dextrose growth medium; read-out: IC50 A. alternata

Item under review: O.O.O=C([O-])c1cc(Cl)cc(C(=O)[O-])n1.O=C([O-])c1cc(Cl)cc(C(=O)[O-])n1.[Ga+3].[Ga+3].[OH-].[OH-] [GaCldpic, [Ga(Cldpic)(H2O)(OH)]2] . Reported IC50?
> 2000 µM

Please answer likewise for O.O=C([O-])c1cccc(C(=O)[O-])n1.O=C([O-])c1cccc(C(=O)[O-])n1.[Ga+3].[OH3+] [GaDpic, H3O[Ga(Dpic)2]·H2O]
> 2000 µM

Quick one: O.O.O.O.O.O.O=C([O-])c1cc(O)cc(C(=O)[O-])n1.O=C([O-])c1cc(O)cc(C(=O)[O-])n1.[Ga+3].[Ga+3].[OH-].[OH-] [GaChel, [Ga(Chel)(H2O)(OH)]2·4H2O]
> 2000 µM

Entry O.O=C([O-])c1ccccn1.O=C([O-])c1ccccn1.O=C([O-])c1ccccn1.[Ga+3] [GaPic, [Ga(Pic)3]·H2O] please
> 2000 µM

Now consider O=[N+]([O-])[O-].O=[N+]([O-])[O-].O=[N+]([O-])[O-].[Ga+3] [Ga(NO3)3, gallium(III) nitrate] .
> 500 µM

* * *

- protocol_notes: MTS antiproliferative assay (non-cancer cells)
- measurement_conditions: human, human dermal fibroblasts (HDF)
Would you mind telling me the reported IC50 at 72 h of each entry?

Which IC50 at 72 h value belongs to O=C(O)c1ccccn1 ?
> 200 µM

Same question for O=C(O)c1cc(Cl)cc(C(=O)O)n1 please.
> 200 µM

* * *

- Tested on: A2058 (human metastatic melanoma)
- protocol_notes: MTS antiproliferative assay
- measurement_conditions: read-out: Cytotoxic activity IC50 A2058; MTS, 72 h of incubation
reported_endpoint: IC50 (µM)
Return type: number; implicit unit µM.

Using the record for N.N.[Cl][Pt][Cl] [cisPt, cisplatin] , report its IC50.
17.6

* * *

Assign IC50 to each entry below.
- Test system: Staphylococcus aureus (S. aureus) CCM 3953
- protocol_notes: Antimicrobial activity, macrodilution method (growth by A590)
- Type: cell-based
- measurement_conditions: Bacteria; MHB, 37 °C; DMSO max 1.0 vol. %; read-out: IC50 S. aureus
The reply should be a number in µM, with the unit left off.

Given O.O.O.O.O.O.O=C([O-])c1cc(O)cc(C(=O)[O-])n1.O=C([O-])c1cc(O)cc(C(=O)[O-])n1.[Ga+3].[Ga+3].[OH-].[OH-] [GaChel, [Ga(Chel)(H2O)(OH)]2·4H2O] , state its recorded IC50.
2000

Now consider O.O=C([O-])c1ccccn1.O=C([O-])c1ccccn1.O=C([O-])c1ccccn1.[Ga+3] [GaPic, [Ga(Pic)3]·H2O] and answer again.
2000

* * *

- System: A2058 (human metastatic melanoma)
- protocol_notes: MTS antiproliferative assay
Give IC50 for every item shown.
// note: answer is a bare numeric in µM

If you can, please state the reported IC50 value of O.O=C([O-])c1cccc(C(=O)[O-])n1.O=C([O-])c1cccc(C(=O)[O-])n1.[Ga+3].[OH3+] [GaDpic, H3O[Ga(Dpic)2]·H2O] .
287

Now this one: O.O.O.O.O.O.O=C([O-])c1cc(O)cc(C(=O)[O-])n1.O=C([O-])c1cc(O)cc(C(=O)[O-])n1.[Ga+3].[Ga+3].[OH-].[OH-] [GaChel, [Ga(Chel)(H2O)(OH)]2·4H2O]
415

Request: O.O=C([O-])c1ccccn1.O=C([O-])c1ccccn1.O=C([O-])c1ccccn1.[Ga+3] [GaPic, [Ga(Pic)3]·H2O]
187

Query O.O.O=C([O-])c1cc(Cl)cc(C(=O)[O-])n1.O=C([O-])c1cc(Cl)cc(C(=O)[O-])n1.[Ga+3].[Ga+3].[OH-].[OH-] [GaCldpic, [Ga(Cldpic)(H2O)(OH)]2] next
294

* * *

- Tested on: Staphylococcus aureus (S. aureus) CCM 3953
- protocol_notes: Antimicrobial activity, macrodilution method (growth by A590)
- Assay type: cell-based
- measurement_conditions: Bacteria; MHB, 37 °C; DMSO max 1.0 vol. %; read-out: IC50 S. aureus
pIC50: −log10 of the molar value.
reported_endpoint: pIC50

Give the measured pIC50 of O=[N+]([O-])[O-].O=[N+]([O-])[O-].O=[N+]([O-])[O-].[Ga+3] [Ga(NO3)3, gallium(III) nitrate] .
< 3.30

Same question, O.O.O=C([O-])c1cc(Cl)cc(C(=O)[O-])n1.O=C([O-])c1cc(Cl)cc(C(=O)[O-])n1.[Ga+3].[Ga+3].[OH-].[OH-] [GaCldpic, [Ga(Cldpic)(H2O)(OH)]2] this time
< 2.70

Again, but for O.O=C([O-])c1cccc(C(=O)[O-])n1.O=C([O-])c1cccc(C(=O)[O-])n1.[Ga+3].[OH3+] [GaDpic, H3O[Ga(Dpic)2]·H2O]
< 2.70

Data provenance is paper PMC10415494.
